src = the supplement of paper PMC3545927

For each entry below, report its furin cleavage Z-score value.
# TEST_TARGET: furin, P09958;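 further: purified furin at 1:10 enzyme:substrate in 50 mM HEPES pH 7.5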
# Sequence (P09958 whole entry): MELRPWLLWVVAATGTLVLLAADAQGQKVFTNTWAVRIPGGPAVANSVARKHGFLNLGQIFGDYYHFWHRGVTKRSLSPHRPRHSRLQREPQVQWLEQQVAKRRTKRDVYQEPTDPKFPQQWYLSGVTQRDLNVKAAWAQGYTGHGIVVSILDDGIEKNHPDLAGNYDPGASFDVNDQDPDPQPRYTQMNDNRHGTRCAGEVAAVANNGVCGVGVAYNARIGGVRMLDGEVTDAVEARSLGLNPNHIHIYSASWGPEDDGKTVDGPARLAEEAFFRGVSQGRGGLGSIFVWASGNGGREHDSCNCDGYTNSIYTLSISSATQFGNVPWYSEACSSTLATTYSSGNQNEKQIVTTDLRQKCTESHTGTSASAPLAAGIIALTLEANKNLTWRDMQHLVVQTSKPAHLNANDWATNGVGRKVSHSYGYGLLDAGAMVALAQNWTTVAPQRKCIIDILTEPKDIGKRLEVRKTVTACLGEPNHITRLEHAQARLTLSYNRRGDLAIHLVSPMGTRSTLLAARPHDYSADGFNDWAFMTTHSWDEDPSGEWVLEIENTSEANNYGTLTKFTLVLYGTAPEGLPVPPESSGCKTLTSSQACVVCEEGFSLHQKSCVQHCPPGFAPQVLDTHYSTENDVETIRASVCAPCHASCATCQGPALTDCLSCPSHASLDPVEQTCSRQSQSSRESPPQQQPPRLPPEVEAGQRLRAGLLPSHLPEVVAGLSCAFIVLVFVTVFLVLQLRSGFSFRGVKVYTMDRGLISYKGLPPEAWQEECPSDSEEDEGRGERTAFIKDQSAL
# EXPERIMENT_DESCRIPTION: furin cleavage Z-score vs untreated control; higher = more cleavage, active = 3.5 or more, inactive = 1 or less, 8 variable residues between constant flanks
# SETTINGS: 7.5 min
The list shows a part of the results. How many sequences the whole screen found active is unknown.
Numbers only.

>>> df
              ordered_residues            readout_type  data_value
0  CACVVTSTWVAGNASASA [HC2160]  furin cleavage Z-score      -0.122

Answer for every listed entry: what is its furin cleavage Z-score? The entries follow.
1. CADIINGLPVAGNASASA [HC658]
2. CAEVPCHYPSAGNASASA [HC2369]
3. CAYRHRKKRNAGNASASA [FS-902]
4. CARCDLEDRDAGNASASA [HC486]
5. CAHPHRTKREAGNASASA [FS-795]
6. CAVPHPNIEEAGNASASA [HC839]

1. -0.191
2. 0.223
3. 2.85
4. 1.03
5. 11.5
6. 0.645
